Data origin: patent US6897209B2

Attribute: % ID Heart
# Test Summary: Normal rat biodistribution
# Assay type: in vivo
# Cond: 2 min post-injection, i.v., male Wistar rats, Mean±SD n=3
Measured Parameter: % ID Heart

compound="CC(=NO)C(C)(C)NCC(C)(CNC(=O)CCCCCN)CNC(C)(C)C(C)=NO (stereo not shown)" endpoint_value="0.33 + 0.06 % ID"
compound=CC(=NO)C(C)(C)NCCN(CCNC(=O)c1ccc(S(=O)(=O)NCCCCCN)cc1)CCNC(C)(C)C(C)=NO endpoint_value="0.44 ± 0.09 % ID"
compound="CC(=NO)C(C)(C)NCC(C)(CNC(=O)c1ccc(S(=O)(=O)NCCCCCN)cc1)CNC(C)(C)C(C)=NO (stereo not shown)" endpoint_value="0.51 + 0.08 % ID"
compound="CC(=NO)C(C)(C)NCCN(CCNC(=O)C1CCC(CNC(=O)c2ccc(S(=O)(=O)NCCCCCN)cc2)CC1)CCNC(C)(C)C(C)=NO (stereo not shown)" endpoint_value="0.34 + 0.17 % ID"
compound=NCCCCCNS(=O)(=O)c1ccc(C(=O)NCCCNC(=O)c2ccc(NN)nc2)cc1 endpoint_value="0.73 + 0.1 % ID"
compound=CC(CNCc1ccccc1O)(CNCc1ccccc1O)CNC(=O)c1ccc(S(=O)(=O)NCCCCCN)cc1 endpoint_value="0.74 + 0.1 % ID"
compound="CC(=NO)C(C)(C)NCC(C)(CNC(=O)C1CCC(CNC(=O)c2ccc(S(=O)(=O)NCCCCCN)cc2)CC1)CNC(C)(C)C(C)=NO (stereo not shown)" endpoint_value="0.63 ± 0.17 % ID"
